tested_system: α1β3γ2 GABAA/BzR (Homo sapiens, UniProt P14867+P18507)
assay_name: Competition binding to HEK cell membranes, α1β3γ2
Design: expressed in transfected cells
test_conditions: read-out: Ki α1
pKi: −log10 of the molar value.
pKi below 8 gives -1; pKi at or above it gives 1.

A selection of reference data follows.
# compound, tested_system, classification
measured = [
    ("CC(C)(C)OC(=O)c1cc2c(cn1)[nH]c1ccc(-c3ccco3)cc12", "α1β3γ2 GABAA/BzR (Homo sapiens, UniProt P14867+P18507)", 1),
    ("COc1ccc(-n2nc3c4ccccc4[nH]cc-3c2=O)cc1 [CGS9895, reference compound]", "α1β3γ2 GABAA/BzR (Homo sapiens, UniProt P14867+P18507)", 1),
    ("COc1ccc2c(c1)C(=O)N1CCC[C@H]1c1c(C(=O)OCc3ccccc3)ncn1-2", "α1β3γ2 GABAA/BzR (Homo sapiens, UniProt P14867+P18507)", -1),
    ("O=c1c2c[nH]c3ccccc3c-2nn1-c1ccccc1", "α1β3γ2 GABAA/BzR (Homo sapiens, UniProt P14867+P18507)", 1),
    ("Cc1nnc2n1-c1ccc(Br)cc1C(c1ccccc1F)=NC2 [JYI-64]", "α1β3γ2 GABAA/BzR (Homo sapiens, UniProt P14867+P18507)", 1),
]

I'd appreciate it if you could say whether CCC(OC(=O)c1ncn2c1C1CCCN1C(=O)c1cc(Cl)ccc1-2)C(F)(F)F (mixture of isomers) has pKi at least equal to 8.
-1

I'd appreciate it if you could say whether C#Cc1ccc2c(c1)C(c1cccs1)=NCC(=O)N2 has pKi at least equal to 8.
-1

I'd appreciate it if you could say whether CC(C)OC(=O)c1ncn2c1[C@@H]1CCCN1C(=O)c1cc(Br)ccc1-2 has pKi at least equal to 8.
-1

I'd appreciate it if you could say whether CC(C)OC(=O)c1ncn2c1[C@@H]1CCCN1C(=O)c1ccccc1-2 has pKi at least equal to 8.
1

I'd appreciate it if you could say whether CCC(OC(=O)c1ncn2c1C1CCCN1C(=O)c1cc(F)ccc1-2)C(F)(F)F (mixture of isomers) has pKi at least equal to 8.
-1

I'd appreciate it if you could say whether COc1ccc(-n2nc3c4cc(Cl)ccc4[nH]cc-3c2=O)cc1 has pKi at least equal to 8.
1

Ref: paper PMC4657098
